tested on: HCI-015 (organoid from a triple-negative breast cancer xenograft); assay: CTG-3D luminescence at 96 h relative to day-0 seeding control (ratio to day 0); higher = more growth / less cytotoxicity; PDxO 3D drug screen, 96 h, CTG-3D normalised to day-0 seeding control.; settings: 10 µM; days in culture: 191
Given measured CTG-3D luminescence at 96 h, output Fulfilled if it is greater than or equal to 0.2 and Not fulfilled if not.

As a guide, the following entries are already answered.
O=C(/C=C/c1cccnc1)NCCCCC1CCN(C(=O)c2ccccc2)CC1 Not fulfilled
Nc1ccn([C@@H]2O[C@H](CO)[C@@H](O)C2(F)F)c(=O)n1 Not fulfilled

Request: Can COc1cc2c(Oc3ccc4[nH]c(C)cc4c3F)ncnc2cc1OCCCN1CCCC1 be said to have CTG-3D luminescence at 96 h at or above 0.2?
Result: Not fulfilled

Request: Please check the record CC(C)n1nc(-c2ccc3oc(N)nc3c2)c2c(N)ncnc21 and state if its CTG-3D luminescence at 96 h is at or above 0.2.
Result: Fulfilled

Request: Is CTG-3D luminescence at 96 h for NC1(C(=O)N[C@@H](CCO)c2ccc(Cl)cc2)CCN(c2nc[nH]c3nccc2-3)CC1 at or above 0.2?
Result: Fulfilled

---

tested on: HCI-023 (organoid from a triple-negative breast cancer xenograft); assay: CTG-3D luminescence at 96 h relative to day-0 seeding control (ratio to day 0); higher = more growth / less cytotoxicity; PDxO 3D drug screen, 96 h, CTG-3D normalised to day-0 seeding control.; conditions: 0.00025 µM; days in culture: 128
quantityKind: CTG-3D luminescence at 96 h

The cases that follow already have their CTG-3D luminescence at 96 h on record.
compound	quantityKind	valueReported
O=C(c1ccc(F)c(F)c1Nc1ccc(I)cc1F)N1CC(O)([C@@H]2CCCCN2)C1	CTG-3D luminescence at 96 h	1.44
COc1cc2c(Oc3ccc4[nH]c(C)cc4c3F)ncnc2cc1OCCCN1CCCC1	CTG-3D luminescence at 96 h	1.51
NC1(C(=O)N[C@@H](CCO)c2ccc(Cl)cc2)CCN(c2nc[nH]c3nccc2-3)CC1	CTG-3D luminescence at 96 h	1.63

Hi! Can you tell me CTG-3D luminescence at 96 h for each of these compounds?
1. O=C(O)C1(C(=O)O)CCC1.[NH2-].[NH2-].[Pt+2]
2. CC(=O)O[C@H]1C(=O)[C@@]2(C)[C@H]([C@H](OC(=O)c3ccccc3)[C@]3(O)C[C@H](OC(=O)[C@H](O)[C@@H](NC(=O)c4ccccc4)c4ccccc4)C(C)=C1C3(C)C)[C@]1(OC(C)=O)CO[C@@H]1C[C@@H]2O
3. C[C@]12CC[C@@H]3c4ccc(O)cc4C[C@@H](CCCCCCCCC[S+]([O-])CCCC(F)(F)C(F)(F)F)[C@H]3[C@@H]1CC[C@@H]2O (some centres not stated)
4. NC(=O)c1cccc2cn(-c3ccc([C@@H]4CCCNC4)cc3)nc12

Result:
[1.47, 1.38, 1.54, 1.57]

---

system: HCI-008 (organoid from a HER2-enriched breast cancer xenograft); assay: CTG-3D luminescence at 96 h relative to day-0 seeding control (ratio to day 0); higher = more growth / less cytotoxicity; PDxO 3D drug screen (set 2), 96 h, CTG-3D normalised to day-0 seeding control.; details: 100 µM; days in culture: 325
Kindly state CTG-3D luminescence at 96 h for each of the entries shown.
One number for each entry.

Record excerpt, results attached:
CCOc1ccn(-c2ccc(F)cc2)c(=O)c1C(=O)Nc1ccc(Oc2ccnc(N)c2Cl)c(F)c1 1.08
CS(=O)(=O)CCNCc1ccc(-c2ccc3ncnc(Nc4ccc(OCc5cccc(F)c5)c(Cl)c4)c3c2)o1 0.0242
Nc1cc(C(F)(F)F)c(-c2cc(N3CCOCC3)nc(N3CCOCC3)n2)cn1 0.313
CC(=O)O[C@@]12CO[C@@H]1C[C@H](O)[C@@]1(C)C(=O)[C@H](O)C3=C(C)[C@@H](OC(=O)[C@H](O)[C@@H](NC(=O)OC(C)(C)C)c4ccccc4)C[C@@](O)([C@@H](OC(=O)c4ccccc4)[C@H]21)C3(C)C 0.0817

Request: For the compound O=C(c1cc(Cc2n[nH]c(=O)c3ccccc23)ccc1F)N1CCN(C(=O)C2CC2)CC1 , report CTG-3D luminescence at 96 h.
Result: 0.484
